The reported measurements were obtained from ChEMBL document CHEMBL1150404.

assay: Displacement of [3H]prazosin from alpha-1-adrenoceptor in Wistar rat cerebral cortex membrane; format: tissue-based
Assignment: determine reported pKi for the given compounds.
The value called pKi is obtained by taking minus log10 of the concentration in mol/L.

query: Recorded pKi of "CCOc1ccccc1N1CCN(CCCCCCn2ncc(N3CCN(CCOc4ccccc4OC)CC3)c(Cl)c2=O)CC1" , please.
result: 10.30

query: Recorded pKi of "CCOc1ccccc1OCCN1CCN(c2cnn(CCN3CCN(c4ccccc4OCC)CC3)c(=O)c2Cl)CC1" , please.
result: 10.30

query: Recorded pKi of "CCOc1ccccc1OCCN1CCN(c2cnn(CCCN3CCN(c4ccccc4OCC)CC3)c(=O)c2Cl)CC1" , please.
result: 10.30

query: Recorded pKi of COc1ccccc1N1CCN(C(C)CCN2C(=O)C3Oc4ccccc4C3N(C)C2=O)CC1 (centres undefined) , please.
result: 10.00

query: Recorded pKi of "CCOc1ccccc1OCCN1CCN(c2cnn(CCCCCN3CCN(c4ccccc4OCC)CC3)c(=O)c2Cl)CC1" , please.
result: 10.30

query: Recorded pKi of "COc1ccccc1OCCN1CCN(c2cnn(CCCCCN3CCN(c4ccccc4OC)CC3)c(=O)c2Cl)CC1" , please.
result: 10.30

query: Recorded pKi of COc1ccc(Cl)cc1N1CCN(CCN2C(=O)C3Sc4ccccc4C3N=C2C)CC1 (centres undefined) , please.
result: 9.30

query: Recorded pKi of COc1ccccc1N1CCN(CCN2C(=O)C3C(c4ccccc4N3C)N(C)C2=O)CC1 (centres undefined) , please.
result: 10.00

query: Recorded pKi of COc1ccccc1N1CCN(CCCN2C(=O)NC3c4ccccc4OC3C2=O)CC1 (centres undefined) , please.
result: 10.00

* * *

Assignment: determine reported Ki for the given compounds.
assay: Displacement of [3H]prazosin from alpha-1-adrenoceptor in Wistar rat cerebral cortex membrane; assay type: tissue-based
Reply with a number, then the unit it belongs to.

query: Recorded Ki of "COc1ccccc1OCCN1CCN(c2cnn(CCCN3CCN(c4ccccc4OC)CC3)c(=O)c2Cl)CC1" , please.
result: 0.05 nM

query: Recorded Ki of COc1ccccc1N1CCN(C(C)CCN2C(=O)NC3c4ccccc4SC3C2=O)CC1 (configuration not stated) , please.
result: 0.1 nM

query: Recorded Ki of "CCOc1ccccc1N1CCN(CCCCn2ncc(N3CCN(CCOc4ccccc4OC)CC3)c(Cl)c2=O)CC1" , please.
result: 0.05 nM

query: Recorded Ki of "COc1ccccc1OCCN1CCN(c2cnn(CCCCN3CCN(c4ccccc4OC)CC3)c(=O)c2Cl)CC1" , please.
result: 0.05 nM

query: Recorded Ki of COc1ccccc1N1CCN(CCN2C(=O)NC3c4ccccc4SC3C2=O)CC1 (configuration not stated) , please.
result: 0.1 nM

query: Recorded Ki of COC(=O)CN1C(=O)N(CC(O)CN2CCN(c3ccccc3OC)CC2)C(c2ccccc2)(c2ccccc2)C1=O (configuration not stated) , please.
result: 198 nM

query: Recorded Ki of COc1ccccc1N1CCN(CCN2C(=O)NC3c4ccccc4N(C)C3C2=O)CC1 (configuration not stated) , please.
result: 0.1 nM

query: Recorded Ki of "CCOc1ccccc1OCCN1CCN(c2cnn(CCCCN3CCN(c4ccccc4OC)CC3)c(=O)c2Cl)CC1" , please.
result: 0.05 nM

query: Recorded Ki of "COc1ccccc1OCCN1CCN(c2cnn(CCCCCCN3CCN(c4ccccc4OC)CC3)c(=O)c2Cl)CC1" , please.
result: 0.05 nM

query: Recorded Ki of COC(=O)C(C)N1C(=O)N(CC(O)CN2CCN(c3ccccc3OC)CC2)C(c2ccccc2)(c2ccccc2)C1=O (configuration not stated) , please.
result: 104 nM

query: Recorded Ki of "CCOc1ccccc1OCCN1CCN(c2cnn(CCCN3CCN(c4ccccc4OC(C)C)CC3)c(=O)c2Cl)CC1" , please.
result: 0.05 nM

query: Recorded Ki of "CCOc1ccccc1OCCN1CCN(c2cnn(CCCCCCN3CCN(c4ccccc4OC(C)C)CC3)c(=O)c2Cl)CC1" , please.
result: 0.05 nM

query: Recorded Ki of "CCOc1ccccc1OCCN1CCN(c2cnn(CCCCCN3CCN(c4ccccc4OC)CC3)c(=O)c2Cl)CC1" , please.
result: 0.05 nM

query: Recorded Ki of COc1ccccc1N1CCN(CCCN2C(=O)C3Sc4ccccc4C3N(C)C2=O)CC1 (configuration not stated) , please.
result: 0.1 nM

query: Recorded Ki of "O=c1ccc(-n2cnc3ccccc32)nn1CCCCCCCN1CCN(c2ccccc2Cl)CC1" , please.
result: 0.2 nM

query: Recorded Ki of COc1ccccc1N1CCN(C(C)CCN2C(=O)NC3c4ccccc4NC3C2=O)CC1 (configuration not stated) , please.
result: 0.1 nM

query: Recorded Ki of "CCOc1ccccc1OCCN1CCN(c2cnn(CCN3CCN(c4ccccc4OC)CC3)c(=O)c2Cl)CC1" , please.
result: 0.05 nM

query: Recorded Ki of COc1ccc(Cl)cc1N1CCN(CCN2C(=O)C3Nc4ccccc4C3N=C2C)CC1 (configuration not stated) , please.
result: 0.5 nM

query: Recorded Ki of COc1ccccc1N1CCN(C(C)CCN2C(=O)C3Sc4ccccc4C3N(C)C2=O)CC1 (configuration not stated) , please.
result: 0.1 nM

query: Recorded Ki of COc1ccccc1N1CCN(CCN2C(=O)C3Nc4ccccc4C3N(C)C2=O)CC1 (configuration not stated) , please.
result: 0.1 nM

query: Recorded Ki of COc1ccccc1N1CCN(CCN2C(=O)C3Sc4ccccc4C3N=C2C)CC1 (configuration not stated) , please.
result: 0.5 nM

query: Recorded Ki of "CCOc1ccccc1OCCN1CCN(c2cnn(CCCCN3CCN(c4ccccc4OC(C)C)CC3)c(=O)c2Cl)CC1" , please.
result: 0.05 nM

query: Recorded Ki of COc1ccccc1N1CCN(CCCN2C(=O)NC3c4ccccc4SC3C2=O)CC1 (configuration not stated) , please.
result: 0.1 nM

query: Recorded Ki of "O=c1ccc(-n2ccnc2)nn1CCCN1CCN(c2ccccc2Cl)CC1" , please.
result: 0.2 nM

query: Recorded Ki of COc1ccccc1N1CCN(C(C)CCN2C(=O)NC3c4ccccc4N(C)C3C2=O)CC1 (configuration not stated) , please.
result: 0.1 nM

query: Recorded Ki of COc1ccccc1N1CCN(CCN2C(=O)NC3c4ccccc4NC3C2=O)CC1 (configuration not stated) , please.
result: 0.1 nM

query: Recorded Ki of "COc1ccccc1OCCN1CCN(c2cnn(CCCN3CCN(c4ccccc4OC(C)C)CC3)c(=O)c2Cl)CC1" , please.
result: 0.05 nM

query: Recorded Ki of COc1ccccc1N1CCN(C(C)CN2C(=O)C3Sc4ccccc4C3N(C)C2=O)CC1 (configuration not stated) , please.
result: 0.1 nM

query: Recorded Ki of "COc1ccccc1N1CCN(CCCn2nc(-n3ccnc3)ccc2=O)CC1" , please.
result: 0.2 nM

query: Recorded Ki of COc1ccccc1N1CCN(CCN2C(=O)NC3c4ccccc4OC3C2=O)CC1 (configuration not stated) , please.
result: 0.1 nM

query: Recorded Ki of COc1ccccc1N1CCN(CCCN2C(=O)NC3c4ccccc4N(C)C3C2=O)CC1 (configuration not stated) , please.
result: 0.1 nM

query: Recorded Ki of COc1ccccc1N1CCN(C(C)CN2C(=O)NC3c4ccccc4NC3C2=O)CC1 (configuration not stated) , please.
result: 0.1 nM

query: Recorded Ki of "CCOc1ccccc1N1CCN(CCCCCn2ncc(N3CCN(CCOc4ccccc4OC)CC3)c(Cl)c2=O)CC1" , please.
result: 0.05 nM

query: Recorded Ki of "CCOc1ccccc1N1CCN(CCCCCCCn2ncc(N3CCN(CCOc4ccccc4OC)CC3)c(Cl)c2=O)CC1" , please.
result: 0.05 nM

query: Recorded Ki of COc1ccccc1N1CCN(C(C)CN2C(=O)C3Nc4ccccc4C3N(C)C2=O)CC1 (configuration not stated) , please.
result: 0.1 nM

query: Recorded Ki of "COc1ccccc1OCCN1CCN(c2cnn(CCCCCCCN3CCN(c4ccccc4OC(C)C)CC3)c(=O)c2Cl)CC1" , please.
result: 0.05 nM

query: Recorded Ki of COc1ccccc1N1CCN(CCCN2C(=O)C3Oc4ccccc4C3N(C)C2=O)CC1 (configuration not stated) , please.
result: 0.1 nM
